The following molecules are shown together with reported Percent Effect values.
System: Mycobacterium tuberculosis
Assay: Cornell M. t heat shock assay; note: in the data most compounds retested in dose-response had high values
Format: functional, organism-based
Set-up: dose or concentration left out as unconfirmed
Among all 69,000 compounds or so, about 950 (1.4%) showed an effect of 50% or more. The full list was thinned out, with strong results kept by preference.
Note: unit % is implicit; provide only the numeric part.

Worked set:
COC[C@]12COC[C@H]1CN(Cc1cc(OC)cc(OC)c1)C2.O=C(O)C(F)(F)F : 3.349
CCOCC1CN(C(=O)c2cscn2)Cc2cn(C)nc21.O=C(O)C(F)(F)F (stereo not drawn) : -37.83
Cc1nccn1CCCn1cncc1-c1ccc2c(c1)CC(C)N2C.Cl (stereo not drawn) : 48.58
CCCN1CCN(C(=O)Cn2nc(C(F)(F)F)c(Br)c2C2CC2)CC1 : -16.27
c1ccc(C2CCN(c3cncc(-n4cccn4)n3)CC2)cc1 : -1.073

The molecule `CCN1CCc2cc(-c3cncn3CC(=O)NC(C)(C)C)ccc21.Cl` on Mycobacterium tuberculosis: Percent Effect was 19.95

Mycobacterium tuberculosis Percent Effect of `c1ccc(COC2CCN(c3cncc(-n4cccn4)n3)CC2)cc1` is 53.35

Record `Cc1cc(NCc2cccc(C#N)c2)ccc1Br` has Mycobacterium tuberculosis Percent Effect equal to -0.9935

I looked up `Cc1nccn1CCCn1cncc1-c1ccc2c(c1)CCCN2C.Cl` and its Percent Effect for Mycobacterium tuberculosis was -22.83

Reported Mycobacterium tuberculosis Percent Effect for item CN1CCCc2cc(-c3cncn3CCNC3CCS(=O)(=O)C3)ccc21.Cl (stereo not drawn) was -0.7285

Observed Percent Effect on Mycobacterium tuberculosis, entry `CCOC(=O)c1n[nH]cc1-c1cncn1CCCn1nc(C)cc1C.Cl` , equals 8.544

Form: item `Cn1cc(CN2CCCC23CCN(C(=O)c2ccncc2)CC3)cn1.O=C(O)C(F)(F)F` ; test system Mycobacterium tuberculosis; Percent Effect: -22.55

Tested system Mycobacterium tuberculosis; Percent Effect recorded for `Cc1c(NCc2ccccc2C#N)cccc1S(=O)(=O)NC1CC1` was 92.24

Tested system Mycobacterium tuberculosis; Percent Effect recorded for CC1Cc2cc(-c3cncn3CC(=O)NC(C)(C)C)ccc2N1C.Cl (stereo not drawn) was -7.03

Mycobacterium tuberculosis data for COc1cc(CNCC(O)c2ccc(C)cc2)cc2c1OCO2.Cl (stereo not drawn) ; its Percent Effect: -8.52

The recorded Percent Effect with Mycobacterium tuberculosis for `Cc1c(NCc2cccc(C#N)c2)cccc1S(=O)(=O)NC1CC1` was 50.22

Item: `Cc1cc(NCc2cccc(C#N)c2)ccc1C(N)=O` | System: Mycobacterium tuberculosis | Percent Effect: -8.044

Assay Mycobacterium tuberculosis, sample `Cc1csc(NCC(=O)c2c[nH]c3ccccc23)n1.I` , Percent Effect read: 13.99

Value (Percent Effect, Mycobacterium tuberculosis) for record `Cc1c(NCc2ccc(C#N)cc2)cccc1S(=O)(=O)NC1CC1` = 50.41

Field Percent Effect (system: Mycobacterium tuberculosis) for entry `Cc1ccc(C(=O)N2CCc3ccc(=O)n(CCN(C)C)c3CC2)o1.O=C(O)C(F)(F)F` = -16.57

The value of Percent Effect recorded for CS(=O)(=O)NCC1CCCCN1Cc1ccccc1C#N (stereo not drawn) when tested on Mycobacterium tuberculosis reads -5.634

Response field Percent Effect (Mycobacterium tuberculosis) for item Fc1cnc(N2CCCC3(CN(Cc4ccncc4)CCO3)C2)nc1.O=C(O)C(F)(F)F.O=C(O)C(F)(F)F (stereo not drawn) : 10.78

I looked up `Cc1ccc(NCc2ccc(C#N)cc2)c(CN(C)C)c1` and its Percent Effect for Mycobacterium tuberculosis was -24.71

###

molecules and their reported Percent Effect
Tested on: Mycobacterium tuberculosis
Experiment: Cornell M. t heat shock assay; note: in the data most compounds retested in dose-response had high values
Assay type: functional, organism-based
Parameters: dose or concentration left out as unconfirmed
The campaign covered roughly 69,000 compounds. About 950 (1.4%) showed an effect of 50% or more. This is one part of a sample in which strong results are shown more often than they occur.
Give just the number in %; leave the unit off.

CNC(=O)[C@H]1C[C@@H]2CN(Cc3ccc(OC)cc3)C[C@H]1O2.O=C(O)C(F)(F)F : 15.08
Cc1cnc(CN(C)C2CCN(Cc3nc4ccccc4o3)C2)o1 (stereo not given) : -16.63
COC[C@H]1CC[C@@H]2[C@@H](CCN2Cc2ccccn2)O1.O=C(O)C(F)(F)F.O=C(O)C(F)(F)F : -12.12
Cc1nc(CN(C)C2CCN(Cc3ccno3)C2)no1 (stereo not given) : -9.493
Cc1nc(CN(C)C2CCN(Cc3nc4ccccc4s3)C2)no1 (stereo not given) : -21.16
Cc1noc(C)c1CN1CCCC2(CCN(CC3CCCC3)C2)C1.O=C(O)C(F)(F)F (stereo not given) : -3.039
Cc1nnc(CN(C)C2CCN(Cc3nc4ccccc4n3C)C2)o1 (stereo not given) : 28.12
CCNc1ncc2c(n1)CN(c1cccc(OC)c1)C2=O : 4.456
Cc1cc2cc(C(=O)N3CC[C@H](O)[C@]4(CCCO4)C3)ccc2o1 : -15.2

So for Cc1cnc(CN(C)C2CCN(Cc3nc4ccccc4n3C)C2)o1 (stereo not given) , the logged Percent Effect turned out to be 96.91

###

This section presents compounds with their documented Percent Effect values.
Tested on: Mycobacterium tuberculosis
Experiment: Cornell M. t heat shock assay; note: in the data most compounds retested in dose-response had high values
Assay type: functional, organism-based
Parameters: dose or concentration left out as unconfirmed
The whole screen tested about 69,000 compounds, of which about 950 (1.4%) showed an effect of 50% or more. Many of the other results were omitted from the sample, so strong results are more common in it than they were.
Report the figure in % without appending any unit label.

CN(Cc1cc2cc(F)ccc2[nH]1)c1cc(C2CCCNC2)ncn1 (configuration not stated) : 27.99
CCN(Cc1ccncc1)c1cc(C2CCNCC2)nc(C)n1 : -13.1
Cc1nc(-c2ccc(F)cc2)cc(C2CCNCC2)n1 : -9.323
O=C(O)C(F)(F)F.O=C1CC(c2ccccc2)C2(CCN(Cc3nccs3)CC2)N1 (configuration not stated) : -1.259
CC(C)c1cc(NC(=O)CN2CCCC2Cn2cncn2)on1 (configuration not stated) : -8.042

Note to self: Percent Effect recorded for CC(C)(C)c1cc(NC(=O)CN2CCCCC2Cn2cncn2)on1 (configuration not stated) was -1.6

Input `O=C(c1c[nH]c(=O)c(Cl)c1)N1C[C@@H]2CC[C@H](C1)N(CC1CCC1)C2` . Output Percent Effect: -23.49

Data point: CC(C)(C)c1cc(NC(=O)CN2CCCC2Cn2cccn2)on1 (configuration not stated) ; Percent Effect = 77.39

Per the record, Cc1cc(C)n(CC2CCCN2CC(=O)Nc2cc(C(C)C)no2)n1 (configuration not stated) has Percent Effect of 66.41

So, `CCCN(CC)c1cc(C2CCNCC2)nc(C)n1` ? Its Percent Effect was -15.84

Notebook: Cc1cnn(CC2CCCN2CC(=O)Nc2cc(C)on2)c1 (configuration not stated) , Percent Effect read as -31.38

Percent Effect reported for this compound `CCN(Cc1c(F)cccc1Cl)c1cc(C2CCNCC2)nc(C)n1` : 69.57

###

System: Mycobacterium tuberculosis
Assay: Cornell M. t heat shock assay; note: in the data most compounds retested in dose-response had high values
Assay type: functional, organism-based
Set-up: dose or concentration left out as unconfirmed
Among all 69,000 compounds or so, about 950 (1.4%) showed an effect of 50% or more. What follows is part of a selection rich in strong results, with near analogues and random picks from the rest.
# maps each entry to its Percent Effect
Number in %, nothing else.

Example entries and their recorded answers appear below.
CC(=O)N1N=C(c2ccccc2)OC1C(=O)NCCOc1ccccc1 (stereo unspecified) : 46.95
CC(=O)N1N=C(c2ccco2)OC1C(=O)N(C)CCc1ccccc1 (stereo unspecified) : -2.033
CNC(=O)CN1CC[C@H]2CN(C(=O)c3ccc(C)cc3)C[C@H]2C1.O=C(O)C(F)(F)F : -25.29

Recorded Percent Effect (compound `Cc1cc(C(=O)NCc2ccco2)nn1C` ): 12.62

Percent Effect in this record for `CC[C@@H]1N(Cc2ccoc2)CCC[C@]12CCC(=O)N2CCOC.O=C(O)C(F)(F)F` : -21.47

Lab note: measured Percent Effect of CN1CC(=O)N(c2cccc(F)c2)CC12CCN(Cc1cnn(C)c1)C2.O=C(O)C(F)(F)F.O=C(O)C(F)(F)F (stereo unspecified) was -4.947

For CC(=O)N1N=C(c2ccncc2)OC1C(=O)N(C)CCc1ccccc1 (stereo unspecified) the compound record lists Percent Effect as 106

Lab book: Percent Effect of Cc1nc(C2CCCN2CCc2ccccn2)no1 (stereo unspecified) noted as -5.804

Record `CC(C)N1CCC2(C=C(C(=O)NC3CC3)c3ccccc32)CC1.O=C(O)C(F)(F)F` . Reported Percent Effect: -2.25

Entry O=C(CN1CCCC1c1nc2cc(F)ccc2[nH]1)NCc1ccccn1 (stereo unspecified) , Percent Effect reported as -20.62

In plain terms, `CS(=O)(=O)N1C[C@H]2CC[C@@H]1CN(Cc1ccncc1)C2` has a documented Percent Effect of -0.4425

Entry CC(C)c1nc(C2CCCN2CCc2ccccn2)no1 (stereo unspecified) ; Percent Effect = -39.31

// field: Percent Effect; key: `CC(C)c1nc2c(n1C)CCN(Cc1cccc(OCC(N)=O)c1)C2` ; value = -13.93

Reported Percent Effect of CC(=O)N1N=C(Cc2ccccc2)OC1C(=O)NCC(=O)OC(C)(C)C (stereo unspecified) : 11.49

Value of Percent Effect reported for the compound CC(=O)N1N=C(c2ccccc2)OC1C(=O)NCCc1ccc(Cl)cc1 (stereo unspecified) is 7.805

Measured Percent Effect, `O=C(Nc1ccccc1)[C@H]1C[C@@H]2CN(S(=O)(=O)c3ccccc3)C[C@H]1O2` : 3.672

Per the record, CC(=O)N1N=C(c2ccccc2)OC1C(=O)N(C)CCc1ccccc1 (stereo unspecified) has Percent Effect of 0.1011

Summary for this compound, CC(=O)N1N=C(c2ccccc2)OC1C(=O)NCCc1ccc(C)cc1 (stereo unspecified) : Percent Effect is 30.4

For reference, reported Percent Effect for CC(=O)N1N=C(c2ccccc2)OC1C(=O)NCCc1ccc(O)cc1 (stereo unspecified) stands at 53.53

Sure, the documented Percent Effect for `CN1CCCCc2c1nc1c(c2N)CCC1.O=C(O)c1cc([N+](=O)[O-])ccc1Cl` is -19.05

Percent Effect recorded for this compound, `Cc1ncccc1-c1cc2cccnc2n1CCCNC(=O)C(C)(C)C.Cl` , is 11.8
